Tested on: M14 melanoma
Assay: NCI tumour cell line growth inhibition, 48 h
Reported Endpoint: TGI (µM)
All answers are understood in µM, so give the number only.

Entry CC(C)(C)[Si](C)(C)OCC1OC(n2cnc3c(N)ncnc32)C(O[Si](C)(C)C(C)(C)C)C1O[Si](C)(C)C(C)(C)C (centres undefined) , TGI reported as 67.4

Entry COc1ccc2c(c1)CC1=C(O2)c2ccc(OC)cc2OC1 , TGI reported as 37.3

====

Test system: KM12 colon
Experiment: NCI tumour cell line growth inhibition, 48 h
Reported Endpoint: TGI

Entry O=C1C(Cl)N(c2ccccc2[N+](=O)[O-])C1c1c[nH]c2ccccc12 (stereo not given) , TGI reported as > 100 µM

Entry Cc1cc2ncc3c(=O)n(NS(=O)(=O)c4ccc(N)cc4)ccc3n2n1 , TGI reported as > 100 µM

Entry Cn1c2ccccc2n2c(=O)c3cc([N+](=O)[O-])ccc3c(C#N)c12 , TGI reported as > 100 µM

Entry NC(N)=NS(=O)(=O)c1ccc(NC(=O)c2ccc3nc4ccccc4c(Nc4ccc(S(=O)(=O)N=C(N)N)cc4)c3c2)cc1 , TGI reported as > 100 µM

Entry C=C1C(=O)O[C@H]2[C@H]1CC/C(COC(=O)c1ccc3ccccc3c1)=C\CC[C@@]1(C)O[C@@H]21 , TGI reported as 3.16 µM

====

Would you mind telling me the reported GI50 of each entry?
Test system: SF-539 CNS
Test: NCI tumour cell line growth inhibition, 48 h

Entry Nc1nc(Cl)c2ncn(Cc3ccc(C45CC6CC(CC(C6)C4)C5)c(O)c3)c2n1 ; assay system SF-539 CNS; GI50 recorded at 11.8 µM

Entry C=C1C(=O)O[C@H]2[C@H]1CC/C(COC(=O)c1ccc3ccccc3c1)=C\CC[C@@]1(C)O[C@@H]21 ; assay system SF-539 CNS; GI50 recorded at 0.838 µM

Entry CS(=O)(=O)c1ccc([C@H]2O[C@@H](CO)C[C@]2(O)c2ccc(S(C)(=O)=O)cc2)cc1 ; assay system SF-539 CNS; GI50 recorded at > 100 µM

Entry CCC[CH2][Sn]1([CH2]CCC)[O]Cc2nc(C)ccc2[O]1 ; assay system SF-539 CNS; GI50 recorded at 12.1 µM

Entry COc1ccc(/C(COc2c(-c3ccccc3)oc3ccccc3c2=O)=N\O)cc1 ; assay system SF-539 CNS; GI50 recorded at 13.5 µM

Entry O=C1c2cc(Cl)ccc2S(=O)(=O)c2c(NCCCNCCO)nc3ccccc3c21 ; assay system SF-539 CNS; GI50 recorded at 1.6 µM

Entry FC(F)(F)c1cccc(Nc2nccc(-c3cnn4nc(-c5ccccc5)ccc34)n2)c1 ; assay system SF-539 CNS; GI50 recorded at 6.59 µM

Entry COC(=O)[C@]12CC[C@@H](C)[C@H](C)[C@@H]1C1=CC[C@@H]3[C@@]4(C)C/C(=N\O)[C@H](O)[C@@]5(C)COC(=C45)C[C@@]3(C)[C@]1(C)CC2 ; assay system SF-539 CNS; GI50 recorded at 9.05 µM

Entry O=c1/c(=C/c2ccco2)sc2nc3ccccc3n12 ; assay system SF-539 CNS; GI50 recorded at > 100 µM

====

Tested on: SK-MEL-2 melanoma
Assay: NCI tumour cell line growth inhibition, 48 h
Reported Endpoint: log10(TGI) (log10 of the value in µM)
Please be aware that the numbers have been log10-transformed from TGI in µM.

Entry Oc1c(CN2CCC(N3CCCCC3)CC2)cc(Cc2cc(CN3CCC(N4CCCCC4)CC3)c(O)c3ncccc23)c2cccnc12 ; assay system SK-MEL-2 melanoma; log10(TGI) recorded at 0.85

Entry CC(=O)OC[C@]1(C)C=C2C(=O)[C@](C)(O)C3(CC3)C(C)=C2[C@H]1O ; assay system SK-MEL-2 melanoma; log10(TGI) recorded at -0.46

Entry O=[N+]([O-])c1ccc(NC(=S)N=Nc2c(O)[nH]c3ccc(Br)cc23)cc1 ; assay system SK-MEL-2 melanoma; log10(TGI) recorded at 1.45

Entry O=C(N/N=C/c1cc(Br)cc(Br)c1[O-])c1ccccc1O.O=C(N/N=C/c1cc(Br)cc(Br)c1[O-])c1ccccc1O.[Fe+2] ; assay system SK-MEL-2 melanoma; log10(TGI) recorded at 1.33

Entry CC(C)(C)c1cc(/C=C(\C#N)C(=O)NCCO)cc(C(C)(C)C)c1O ; assay system SK-MEL-2 melanoma; log10(TGI) recorded at 1.57

====

Test system: COLO 205 colon
Assay: NCI tumour cell line growth inhibition, 48 h
Reported Endpoint: TGI (µM)
All answers are understood in µM, so give the number only.

Entry Oc1c(CN2CCC(N3CCCCC3)CC2)cc(Cc2cc(CN3CCC(N4CCCCC4)CC3)c(O)c3ncccc23)c2cccnc12 , TGI reported as 1.94

Entry CC(=O)OC[C@]1(C)C=C2C(=O)[C@](C)(O)C3(CC3)C(C)=C2[C@H]1O , TGI reported as 0.308

Entry CCC(=O)Oc1c2ccsc2c(OC(=O)CC)c2ccsc12 , TGI reported as 10.6

Entry Clc1ccc(OCc2nnc(CCCCCCCCc3nnc(COc4ccc(Cl)cc4)n3Nc3ccccc3)n2Nc2ccccc2)cc1 , TGI reported as 0.894

Entry O/N=C/C1c2ccccc2-c2ccccc21 , TGI reported as 30.7

Entry C=CC(=O)N1CC2(CCN(c3nc(OC4CCN(CCCOC)CC4)nc4c(OCC(F)(F)F)c(-c5c(C)ccc6[nH]ncc56)c(C5CC5)cc34)CC2)C1 , TGI reported as 3.73

Entry CCOc1cc2c(Cl)ncnc2c(OCC)c1OCC , TGI reported as 25.5

Entry CC(C)c1nc(CN(C)C(=O)N[C@H](C(=O)N[C@@H](Cc2ccccc2)C[C@H](O)[C@H](Cc2ccccc2)NC(=O)OCc2cncs2)C(C)C)cs1 , TGI reported as 38.2

====

System: SK-MEL-28 melanoma
Assay: NCI tumour cell line growth inhibition, 48 h
Reported Endpoint: TGI

Entry CCC(C(=O)c1ccc(OC)c(OC)c1)N(C(=O)C(F)(F)F)C(C)c1ccccc1 (stereo not drawn) , TGI reported as > 100 µM

Entry C=CC(=O)N1CC2(CCN(c3nc(OC4CCN(CCCOC)CC4)nc4c(OCC(F)(F)F)c(-c5c(C)ccc6[nH]ncc56)c(C5CC5)cc34)CC2)C1 , TGI reported as 3.37 µM

Entry CCOn1c(C2(CC3CCN(C(=O)c4ccccc4)CC3)OCCO2)cc2ccccc21 , TGI reported as 27.7 µM

Entry O=c1c(-c2ccc(Cl)cc2)nnc2n(Cc3ccccc3)c3ccccc3n12 , TGI reported as > 100 µM

Entry C/C(CC(=O)Nc1ccc(C)cc1C)=N/N=C(N)N , TGI reported as > 100 µM

Entry COc1cc(C2=C(c3ccccc3)COC2=O)cc(OC)c1OC , TGI reported as > 100 µM

Entry COC(=O)/C=C/c1cc(OC)c(OC)c(OC)c1 , TGI reported as > 100 µM

Entry COc1ccc(/C=C/CN(C)CCc2ccccc2)cc1OC , TGI reported as > 100 µM

Entry COc1ccc(/C(COc2c(-c3ccccc3)oc3ccccc3c2=O)=N\O)cc1 , TGI reported as > 50 µM

Entry Cc1cc2ncc3c(=O)n(NS(=O)(=O)c4ccc(N)cc4)ccc3n2n1 , TGI reported as > 100 µM

Entry C[C@]12CC[C@H]3[C@@H](CC=C4C[C@@H](O)CC[C@@]43C)[C@@H]1CC[C@@H]2N(CCO)CCO , TGI reported as > 100 µM

Entry N#Cc1cc2c(cc1Cl)Sc1nccn1S2(=O)=O , TGI reported as 7.33 µM

Entry CN1C(=O)C2(Cc3cn(C45CC67SSC(CO)(C(=O)N6C4Nc4ccccc45)N(C)C7=O)c4ccccc34)SSC1(CO)C(=O)N2C (stereo not drawn) , TGI reported as 0.505 µM

Entry CCN(CC)c1ccc(/C=C/c2ccc3cc(C)ccc3[n+]2CC)cc1 , TGI reported as 2.19 µM

Entry O=C(/C=C/c1c(O)ccc2ccccc12)c1cccc(O)c1 , TGI reported as > 100 µM

Entry CC1=NN(C(=O)Nc2ccccc2)C(=O)C2CCC(=O)N12 (stereo not drawn) , TGI reported as > 100 µM

Entry COC12C=C(C)C(CC1)CC2C(=O)O (stereo not drawn) , TGI reported as > 100 µM

Entry CCC[CH2][Sn]([CH2]CCC)([O]C(=O)c1cccnc1SC)[O]C(=O)c1cccnc1SC , TGI reported as 2.02 µM

Entry CC1(CNCc2ccccc2)CC(CCc2ccccc2)N(C(=O)c2ccc([N+](=O)[O-])cc2)C1Cc1ccc(O)cc1 (stereo not drawn) , TGI reported as > 100 µM

Entry CCC(C)C(=O)OC1CC2(C)C(c3ccoc3)OC(=O)CC23OC2(C)OC34C(OC(=O)C(C)C)C3(O)C(OC(=O)C5(C)OC5C)C5(C)CC3(O)C(C)(C5CC(=O)OC)C14O2 (stereo not drawn) , TGI reported as > 100 µM

Entry CC/C(=C(/c1ccc(O)cc1)c1ccc(OCCNC)cc1)c1ccccc1 , TGI reported as 3.21 µM

Entry CCOC(=O)C(CC#Cc1ccc(C#CCC(NC(C)=O)C(=O)OCC)cc1)NC(C)=O (stereo not drawn) , TGI reported as > 100 µM

Entry CCc1ccc(/C=C\c2cc(OC)c(OC)c(OC)c2)cc1 , TGI reported as > 100 µM

Entry Cc1cn(C(C)OCCN2C(=O)c3ccccc3C2=O)c(=O)[nH]c1=O (stereo not drawn) , TGI reported as > 100 µM

Entry C/C(CC(=O)Nc1cc(Cl)c(Cl)cc1Cl)=N\NC(N)=O , TGI reported as > 100 µM

Entry C=CCCCCCCCCC(=O)[O][Sn]([CH2]CCC)([CH2]CCC)[CH2]CCC , TGI reported as 0.296 µM

Entry COc1cc(CN2CCCCC2)cc2cc(C(=O)O)c(=O)oc12 , TGI reported as > 100 µM

Entry O=C(CC1=NCCN1)c1ccccc1 , TGI reported as > 750 µM

Entry Cc1cc2[nH]c3c(C#N)c4c(c(=O)n3c2cc1C)CCCC4 , TGI reported as > 100 µM

Entry NC(N)=Nc1ncccc1[N+](=O)[O-] , TGI reported as > 100 µM

Entry O=C(Nc1ccccc1C(=O)NCCCO)/C(=C/c1ccccc1O)NC(=O)c1ccccc1 , TGI reported as > 100 µM

Entry Cn1c2ccccc2n2c(=O)c3cc([N+](=O)[O-])ccc3c(C#N)c12 , TGI reported as > 100 µM

Entry Nc1ccc2[nH]c(-c3cccc(Cl)c3)cc(=O)c2c1 , TGI reported as > 100 µM
